// data source = patent US7585880B2

- SYSTEM: human GPR40 (Homo sapiens)
- Sequence (O14842 whole entry): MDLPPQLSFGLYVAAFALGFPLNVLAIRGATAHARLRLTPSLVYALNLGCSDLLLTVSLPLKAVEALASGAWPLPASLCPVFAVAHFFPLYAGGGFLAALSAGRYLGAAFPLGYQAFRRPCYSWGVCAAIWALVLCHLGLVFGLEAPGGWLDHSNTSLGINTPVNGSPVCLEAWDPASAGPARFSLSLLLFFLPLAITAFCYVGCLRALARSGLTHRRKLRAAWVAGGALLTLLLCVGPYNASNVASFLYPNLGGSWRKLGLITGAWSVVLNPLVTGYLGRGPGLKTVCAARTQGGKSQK
- ASSAY OVERVIEW: Determination of EC50 against human GPR40: intracellular calcium change by FLIPR in CHO cells
- STUDY CONDITIONS: CHO cell line that stably expressed human GPR40; changes in intracellular calcium concentration measured by FLIPR (Fluo3-AM)
Quick reference for pEC50 among some molecules
In textbook form, pEC50 equals minus log to base ten of the concentration in mol/L.

Entry CCCN(Cc1ccc(COc2ccc(CCC(=O)O)cc2)cc1)c1nc(-c2ccccc2)c(C)o1 [Example 40] has what pEC50?
7.26

Entry O=C(O)CCc1ccc(OCc2ccc(CN(CCc3ccccn3)c3nc(-c4ccccc4)cs3)cc2)cc1 [Example 12] has what pEC50?
7.72

Entry CC(C)c1csc(N(CCc2ccccc2)Cc2ccc(COc3ccc(CCC(=O)O)cc3)cc2)n1 [Example 2] has what pEC50?
7.32

Entry O=C(O)CCc1c(F)cc(OCc2ccc(CN(CCc3ccccc3)c3nc(-c4ccccc4)cs3)cc2)cc1F [Example 42] has what pEC50?
7.19

Entry CC(C)c1csc(N(CCc2ccc(F)cc2)Cc2ccc(COc3ccc(CCC(=O)O)c(F)c3)cc2)n1 [Example 9] has what pEC50?
7.42
